biological target: BRD8(1) (Homo sapiens); assay: BROMOscan ligand-binding assay; conditions: KD, BRD8(1)
Sequence (Q9H0E9 706-811 limits assumed): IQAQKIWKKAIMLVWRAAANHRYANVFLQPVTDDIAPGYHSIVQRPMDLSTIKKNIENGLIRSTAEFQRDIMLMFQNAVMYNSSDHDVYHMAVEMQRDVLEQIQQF
assay.metric: Kd

Ask | Query: Kd; subject: `O=C(O)c1ccccc1O`
Reply | > 14 mM

Ask | Query: Kd; subject: O=C(C=CN1CC2CC1CN2c1ccccn1)c1ccccc1O (centres unmarked)
Reply | > 0.1 mM

* * *

biological target: BRDT(2) (Homo sapiens); assay: BROMOscan ligand-binding assay; details: KD, BRDT(2)
assay.metric: Kd

Ask | Query: Kd; subject: `O=C(O)c1ccccc1O`
Reply | > 14 mM

Ask | Query: Kd; subject: O=C(C=CN1CC2CC1CN2c1ccccn1)c1ccccc1O (centres unmarked)
Reply | > 0.1 mM

* * *

target: PBRM1(5) (Homo sapiens, UniProt Q86U86); assay: BROMOscan ligand-binding assay; details: BROMOscan, PBRM1(5)
Sequence (Q86U86 653-763 limits assumed): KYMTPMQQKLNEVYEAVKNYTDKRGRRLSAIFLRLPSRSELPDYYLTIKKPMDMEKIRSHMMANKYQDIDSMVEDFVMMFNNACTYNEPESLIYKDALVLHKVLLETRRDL
assay.metric: Kd (nM)
Return type: number; implicit unit nM.

Ask | Query: Kd; subject: O=C(C=CN1[C@H]2CC[C@@H]1c1ncnc(NC3CC3)c1C2)c1ccccc1O [PFI-3 D1]
Reply | 36

* * *

Could you please report measured Kd for the items listed next?
target: BRDT(2) (Homo sapiens); assay: BROMOscan ligand-binding assay; conditions: KD, BROMOscan Gene Symbol BRDT(2)
Return type: number; implicit unit µM.

Ask | Form field - read-out: Kd; system: BRDT(2) (Homo sapiens); submitted item: CCC(=O)N1CCOc2c(cc(-c3ccc(OC)c(OC)c3)cc2OCC2CCCN(C)C2)C1 (centres unmarked)
Reply | 49

Ask | Form field - read-out: Kd; system: BRDT(2) (Homo sapiens); submitted item: `CCCOc1ccn2c(C(C)=O)cc(-c3ccccc3S(C)(=O)=O)c2c1`
Reply | 67

* * *

molecular target: UniProt:Q9UIF8; test: BROMOscan ligand-binding assay; conditions: KD (BROMOscan), sheet prints no unit (nM)
Sequence (Q9UIF8 2060-2164 limits assumed): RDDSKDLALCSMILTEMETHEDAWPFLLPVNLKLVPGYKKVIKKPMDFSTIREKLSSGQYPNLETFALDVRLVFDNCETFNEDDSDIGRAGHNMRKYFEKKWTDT
assay.metric: Kd

Ask | Query: Kd; subject: O=C(C=CN1CC2CC1CN2c1ccccn1)c1ccccc1O (centres unmarked)
Reply | > 30000 nM

Ask | Query: Kd; subject: `COc1ccc(CCc2nc3cc(-c4c(C)noc4C)ccc3n2C[C@H](C)N2CCOCC2)cc1Cl`
Reply | > 30000 nM

* * *

biological target: PBRM1(5) (Homo sapiens); experiment: BROMOscan ligand-binding assay; conditions: KD, BROMOscan Gene Symbol PBRM1(5)
assay.metric: Kd

Ask | Query: Kd; subject: `CCCOc1ccn2c(C(C)=O)cc(-c3ccccc3S(C)(=O)=O)c2c1`
Reply | > 100 µM

* * *

target: EP300 (Homo sapiens); assay: Histone acetyltransferase (HAT) activity assay; assay type: biochemical; conditions: 1µM;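 also: selectivity screen of bromodomain probe compounds against histone acetyltransferases, with enzyme activity given in percent for compounds tested at 1 and 10 µM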
Sequence (Q09472 whole entry, species assumed): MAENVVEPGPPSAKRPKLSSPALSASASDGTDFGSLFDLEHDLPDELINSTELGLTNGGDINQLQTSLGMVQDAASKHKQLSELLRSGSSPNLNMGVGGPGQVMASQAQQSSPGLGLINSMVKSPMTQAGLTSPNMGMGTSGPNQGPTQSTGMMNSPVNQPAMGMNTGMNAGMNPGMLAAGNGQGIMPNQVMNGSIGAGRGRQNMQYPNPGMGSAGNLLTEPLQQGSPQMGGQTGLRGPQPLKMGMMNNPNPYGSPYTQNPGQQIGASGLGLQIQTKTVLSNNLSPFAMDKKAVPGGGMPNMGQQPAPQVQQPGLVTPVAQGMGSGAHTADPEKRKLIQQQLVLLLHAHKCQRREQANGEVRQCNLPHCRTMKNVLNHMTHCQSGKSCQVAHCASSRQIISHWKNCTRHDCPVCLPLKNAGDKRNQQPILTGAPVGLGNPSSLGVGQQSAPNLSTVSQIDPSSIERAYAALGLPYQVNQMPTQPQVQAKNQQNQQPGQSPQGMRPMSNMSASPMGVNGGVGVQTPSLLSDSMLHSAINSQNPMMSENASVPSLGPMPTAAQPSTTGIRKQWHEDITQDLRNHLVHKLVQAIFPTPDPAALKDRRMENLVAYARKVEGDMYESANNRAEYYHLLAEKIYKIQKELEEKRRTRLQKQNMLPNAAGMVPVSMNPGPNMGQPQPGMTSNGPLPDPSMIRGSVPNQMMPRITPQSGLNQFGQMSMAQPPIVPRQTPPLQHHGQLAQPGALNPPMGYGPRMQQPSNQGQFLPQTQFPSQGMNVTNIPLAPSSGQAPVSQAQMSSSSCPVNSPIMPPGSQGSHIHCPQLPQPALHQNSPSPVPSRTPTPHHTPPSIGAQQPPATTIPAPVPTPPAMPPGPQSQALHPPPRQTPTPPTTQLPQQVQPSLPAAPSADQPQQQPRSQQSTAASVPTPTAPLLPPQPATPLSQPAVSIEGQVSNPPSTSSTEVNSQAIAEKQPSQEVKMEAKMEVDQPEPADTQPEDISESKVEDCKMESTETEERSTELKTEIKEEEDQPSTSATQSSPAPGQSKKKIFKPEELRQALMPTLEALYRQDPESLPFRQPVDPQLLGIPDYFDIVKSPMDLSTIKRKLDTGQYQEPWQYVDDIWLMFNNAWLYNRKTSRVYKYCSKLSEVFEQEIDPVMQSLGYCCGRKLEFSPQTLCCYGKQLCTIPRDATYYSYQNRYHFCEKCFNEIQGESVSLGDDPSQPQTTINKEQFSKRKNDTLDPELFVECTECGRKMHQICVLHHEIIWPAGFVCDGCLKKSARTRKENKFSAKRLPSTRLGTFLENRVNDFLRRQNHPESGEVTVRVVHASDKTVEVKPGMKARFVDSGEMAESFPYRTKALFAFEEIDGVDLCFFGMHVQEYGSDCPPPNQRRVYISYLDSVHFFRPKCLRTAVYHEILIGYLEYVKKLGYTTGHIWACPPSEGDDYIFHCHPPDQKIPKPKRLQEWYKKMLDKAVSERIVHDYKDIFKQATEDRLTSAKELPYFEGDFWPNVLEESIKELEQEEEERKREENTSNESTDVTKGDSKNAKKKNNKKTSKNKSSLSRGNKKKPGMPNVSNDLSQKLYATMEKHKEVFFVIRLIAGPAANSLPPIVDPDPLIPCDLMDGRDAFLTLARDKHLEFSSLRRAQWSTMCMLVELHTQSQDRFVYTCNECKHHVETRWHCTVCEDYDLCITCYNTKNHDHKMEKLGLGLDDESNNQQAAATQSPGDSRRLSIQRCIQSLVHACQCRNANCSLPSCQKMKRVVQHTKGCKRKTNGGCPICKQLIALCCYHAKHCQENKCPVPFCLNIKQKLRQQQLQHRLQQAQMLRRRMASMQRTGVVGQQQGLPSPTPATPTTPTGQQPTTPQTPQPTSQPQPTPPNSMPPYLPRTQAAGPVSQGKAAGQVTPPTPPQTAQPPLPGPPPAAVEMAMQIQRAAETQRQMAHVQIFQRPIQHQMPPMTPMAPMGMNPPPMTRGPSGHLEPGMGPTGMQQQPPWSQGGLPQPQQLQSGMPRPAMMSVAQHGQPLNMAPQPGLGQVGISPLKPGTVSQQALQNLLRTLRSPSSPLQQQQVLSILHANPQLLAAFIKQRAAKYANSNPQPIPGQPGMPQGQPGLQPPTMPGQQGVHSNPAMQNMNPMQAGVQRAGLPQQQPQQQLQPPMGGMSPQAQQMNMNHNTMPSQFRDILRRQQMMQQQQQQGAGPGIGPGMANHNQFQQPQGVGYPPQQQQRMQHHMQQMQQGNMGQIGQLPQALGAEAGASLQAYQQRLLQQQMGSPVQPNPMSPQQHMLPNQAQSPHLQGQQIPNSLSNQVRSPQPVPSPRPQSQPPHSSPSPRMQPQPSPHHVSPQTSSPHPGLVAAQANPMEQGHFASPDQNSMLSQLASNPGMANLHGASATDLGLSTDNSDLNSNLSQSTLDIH
Could you please report measured HATs Activity (%) for the items listed next?
Return type: number; implicit unit %.

Ask | Query: HATs Activity (%); subject: `CCn1cc(-c2cccc(C(F)(F)F)c2)c2sc(C(=N)NC3CCS(=O)(=O)CC3)cc2c1=O`
Reply | 96

Ask | Query: HATs Activity (%); subject: `COc1ccccc1C(=O)Nc1cc2c(cc1N1CCNC[C@H]1C)n(C)c(=O)n2C`
Reply | 98

Ask | Query: HATs Activity (%); subject: `COc1ccccc1S(=O)(=O)Nc1ccc2c(c1)CN(C)C(=O)N2`
Reply | 99

Ask | Query: HATs Activity (%); subject: `COc1cc(C#N)ccc1S(=O)(=O)Nc1ccc2c(c1)cc(C)c(=O)n2C`
Reply | 94

Ask | Query: HATs Activity (%); subject: `COc1cc2c(cc1NS(=O)(=O)c1ccc(Br)cc1C)n(C)c(=O)n2C`
Reply | 100

Ask | Query: HATs Activity (%); subject: `Cc1cc(=O)n(C)c2cc(N3C(=O)CC[C@H](NS(=O)(=O)CC(C)C)[C@H]3c3ccc(Cl)cc3)ccc12`
Reply | 99
